- Tested on: HBV DNA
- EXPERIMENT NOTES: HBV in vitro test: HBV DNA in HepG2.2.15 culture supernatant by real time-qPCR
- Format: cell-based, Hepatitis B Virus (HBV)
- MEASUREMENT PARAMETERS: Hepatitis B virus, HepG2.2.15, read-out: HBV-DNA experimental results EC50
Examples of compounds with documented EC50 follow.

COMPOUND	QUANTITY UNIT	EC50
COCCCOc1cc2c(cc1Cl)-c1cc(=O)c(C(=O)O)cn1C(c1nccs1)O2 (stereo not drawn)	µM	0.00688
COCCCOc1cc2c(cc1Cl)-c1cc(=O)c(C(=O)O)cn1C(c1ccc(Cl)cc1)O2 (stereo not drawn)	µM	0.254
COCCCOc1cc2c(cc1Cl)-c1cc(=O)c(C(=O)O)cn1C(c1cccc(Cl)c1)O2 (stereo not drawn)	µM	0.0453
